# PROTOCOL DESCRIPTION: Rat pharmacokinetics
# Format: in vivo, Sprague-Dawley rats
# COND: male, Sprague-Dawley, whole blood, IV 1 mg/kg, blood, read-out: T1/2z (converted)
MEASURED ATTRIBUTE: half-life (h)
Field format: number, assumed h, no unit text.

Give half-life for the following compound: "CC(C)c1nn([C@@H]2O[C@H](COS(N)(=O)=O)[C@@H](O)[C@H]2O)c2ncnc(N)c12"
36.6

* * *

# PROTOCOL DESCRIPTION: Blood exposure in the P. falciparum infected SCID mouse model
# Assay type: in vivo, NODscidIL2Rγ^null mice engrafted with human RBCs
# COND: female, NODscidIL2Rγnull engrafted with human RBCs, mouse, whole blood, po, 100 mg/kg, 1 x 100 mg/kg p.o., blood, read-out: AUC0-120h (mean)
MEASURED ATTRIBUTE: AUC(0-t) (µg·h/mL)
Field format: number, assumed µg·h/mL, no unit text.

Give AUC(0-t) for the following compound: "CC(C)c1nn([C@@H]2O[C@H](COS(N)(=O)=O)[C@@H](O)[C@H]2O)c2ncnc(N)c12"
250
